# Experimental System: CLK1 (full-length) (Homo sapiens, UniProt P49759, V324A)
# Sequence (P49759 whole entry V324A): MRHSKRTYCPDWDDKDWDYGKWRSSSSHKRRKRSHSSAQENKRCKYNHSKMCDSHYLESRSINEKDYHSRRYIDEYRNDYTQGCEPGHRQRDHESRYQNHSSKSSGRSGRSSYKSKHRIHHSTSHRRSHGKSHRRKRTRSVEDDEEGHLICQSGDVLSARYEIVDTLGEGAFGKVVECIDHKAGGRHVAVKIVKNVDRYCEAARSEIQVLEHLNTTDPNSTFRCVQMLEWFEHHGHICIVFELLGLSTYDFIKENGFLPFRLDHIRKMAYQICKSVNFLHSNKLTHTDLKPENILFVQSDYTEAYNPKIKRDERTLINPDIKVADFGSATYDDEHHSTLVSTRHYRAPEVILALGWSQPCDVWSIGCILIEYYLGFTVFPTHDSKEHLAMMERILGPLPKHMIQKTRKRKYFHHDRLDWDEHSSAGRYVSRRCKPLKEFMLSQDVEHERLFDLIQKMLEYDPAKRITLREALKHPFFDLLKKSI
# Procedure Summary: cell-based
Measured Parameter: Ki (nM)

Sample answers from the record:
>>> print(df.to_string())
                                   compound                       experimental_system  measured_parameter  test_value
0  CCOc1ccc2c(-c3ccnc(Nc4cc(OC)cc(C(F)(F)F)c4)n3)cnn2n1 [compound 8, GW807982X]  CLK1 (full-length) (Homo sapiens, UniProt P49759, V324A)                  Ki        3930
1   O=c1c2c(ccc3nc(-c4cccnc4)sc32)ncn1C1CC1  CLK1 (full-length) (Homo sapiens, UniProt P49759, V324A)                  Ki        5450
2  Cn1c2c(c3ccc(Cl)c(Cl)c31)C(C#N)C1(CCNCC1)NC2=O (racemic)  CLK1 (full-length) (Homo sapiens, UniProt P49759, V324A)                  Ki        2810
3    O=C1NCc2ccc3c(-c4cccc(Cl)c4)c[nH]c3c21  CLK1 (full-length) (Homo sapiens, UniProt P49759, V324A)                  Ki         878

I = CC(=O)c1cccc(-c2cnc3ccc(NC(CO)C(C)C)nn23)c1 (stereo not drawn)
II = CN1CCN(C(=O)C(C)(C)c2ccc(C(=O)Nc3cn4cc(-c5ccncc5)ccc4n3)cc2)CC1
Field: lower recorded Ki (choose I or II ) Respond with the label that goes with your answer.
II
(II: 2.3 nM, I: 2640 nM)

---

# Experimental System: CLK3 (R134-T484) (Homo sapiens, UniProt P49761, A319V)
# Sequence (P49761 134-484 A319V): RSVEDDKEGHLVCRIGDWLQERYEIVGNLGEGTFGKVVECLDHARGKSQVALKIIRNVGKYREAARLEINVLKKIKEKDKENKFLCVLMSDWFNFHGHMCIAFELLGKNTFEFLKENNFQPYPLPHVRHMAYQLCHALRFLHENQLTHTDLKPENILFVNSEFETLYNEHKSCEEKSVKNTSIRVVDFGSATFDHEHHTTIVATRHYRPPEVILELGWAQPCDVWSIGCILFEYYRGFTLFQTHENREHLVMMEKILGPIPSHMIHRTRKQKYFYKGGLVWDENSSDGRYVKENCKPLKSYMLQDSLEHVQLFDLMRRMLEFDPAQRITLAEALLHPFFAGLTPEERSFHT
# Stated Conditions: binder
Measured Parameter: ΔTm A319V CLK3 (°C)

P = Cn1cc(-c2ccc3occ(-c4cccc(-c5ccncc5)c4)c3n2)cn1
Q = CN1CCC2(CC1)NC(=O)c1c(c3ccc(Cl)c(Cl)c3n1C)C2C#N (stereo not drawn)
// max by ΔTm A319V CLK3 over [ P , Q ] Respond with the label that goes with your answer.
P
(P: 8.27 °C, Q: 5.0 °C)

---

# Experimental System: CLK1 (H148-I484) (Homo sapiens, UniProt P49759)
# Sequence (P49759 148-484): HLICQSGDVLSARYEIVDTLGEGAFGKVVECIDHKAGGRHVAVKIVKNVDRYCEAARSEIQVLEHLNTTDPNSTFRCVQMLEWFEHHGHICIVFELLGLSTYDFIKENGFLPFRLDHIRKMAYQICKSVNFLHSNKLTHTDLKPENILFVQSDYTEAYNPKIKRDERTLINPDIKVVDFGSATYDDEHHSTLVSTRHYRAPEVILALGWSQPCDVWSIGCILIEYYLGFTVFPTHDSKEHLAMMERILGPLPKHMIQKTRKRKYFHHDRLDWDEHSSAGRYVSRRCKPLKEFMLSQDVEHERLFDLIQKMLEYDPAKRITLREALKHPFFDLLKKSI
# Stated Conditions: binder
Measured Parameter: ΔTm wild type CLK1 (°C)

1 = Nc1ncnc2c1c(I)cn2C1OC(CO)C(O)C1O (centres unmarked)
2 = CC(=O)c1cccc(-c2cnc3ccc(NCC4CC4)nn23)c1
// max by ΔTm wild type CLK1 over [ 1 , 2 ] Respond with the label that goes with your answer.
1
(1: 13.1 °C, 2: 7.2 °C)

P = Cn1cc(-c2ccc3occ(-c4cccc(Oc5ccccc5)c4)c3n2)cn1
Q = CN1CCN(C(=O)C(C)(C)c2ccc(C(=O)Nc3cn4cc(-c5ccncc5)ccc4n3)cc2)CC1
R = Nc1nccc(-c2ccc3noc(-c4ccc(Cl)cc4)c3c2)n1
Arrange these compounds by their ΔTm wild type CLK1, starting with the largest number. Response field: labels, in requested order.
Q, P, R
(Q: 18.7 °C, P: 12.3 °C, R: 5.7 °C)

---

# Experimental System: CLK3 (R134-T484) (Homo sapiens, UniProt P49761)
# Sequence (P49761 134-484): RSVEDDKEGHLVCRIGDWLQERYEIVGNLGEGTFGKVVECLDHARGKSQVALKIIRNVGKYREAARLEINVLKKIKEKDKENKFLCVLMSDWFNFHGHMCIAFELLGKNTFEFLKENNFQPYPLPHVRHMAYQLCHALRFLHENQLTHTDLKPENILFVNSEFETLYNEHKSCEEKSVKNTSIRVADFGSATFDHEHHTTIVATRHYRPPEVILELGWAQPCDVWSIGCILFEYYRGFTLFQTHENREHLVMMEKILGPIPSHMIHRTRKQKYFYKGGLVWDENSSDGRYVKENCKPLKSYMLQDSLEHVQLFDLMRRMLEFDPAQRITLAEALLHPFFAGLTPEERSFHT
# Stated Conditions: binder
Measured Parameter: ΔTm wild type CLK3 (°C)

>>> df
                                   molecule  measured_parameter  unit_spec  test_value
0  Cn1c2c(c3ccc(Cl)c(Cl)c31)C(C#N)C1(CCNCC1)NC2=O (racemic)  ΔTm wild type CLK3         °C         1.2

I = Cn1cc(-c2ccc3occ(-c4cccc(Oc5ccccc5)c4)c3n2)cn1
II = Nc1ncnc2c1c(I)cn2C1OC(CO)C(O)C1O (stereo not drawn)
Field: lower recorded ΔTm wild type CLK3 (choose I or II ) Respond with the label that goes with your answer.
I

---

# Experimental System: CLK3 (R134-T484) (Homo sapiens, UniProt P49761, A319V)
# Stated Conditions: binder
Measured Parameter: ΔTm A319V CLK3 (°C)

1 = Cn1cc(-c2ccc3occ(-c4cccc(Oc5ccccc5)c4)c3n2)cn1
2 = Nc1nccc(-c2ccc3noc(-c4ccc(Cl)cc4)c3c2)n1
3 = CN1CCN(C(=O)C(C)(C)c2ccc(C(=O)Nc3cn4cc(-c5ccncc5)ccc4n3)cc2)CC1
For the molecules shown above, give the order from largest ΔTm A319V CLK3 to smallest. Response field: labels, in requested order.
3, 1, 2

---

# Experimental System: CLK1 (full-length) (Homo sapiens, UniProt P49759)
# Sequence (P49759 whole entry): as the sequence (P49759 whole entry V324A) above, with A324V counted along it
# Procedure Summary: cell-based
Measured Parameter: Ki (nM)

I = O=C1NCc2ccc3c(-c4cccc(Cl)c4)c[nH]c3c21 [compound 11, KuWal151]
II = CCOc1ccc2c(-c3ccnc(Nc4cc(OC)cc(C(F)(F)F)c4)n3)cnn2n1 [compound 8, GW807982X]
III = CC(=O)c1cccc(-c2cnc3ccc(NC(CO)C(C)C)nn23)c1 (centres unmarked) [compound 9, K00518]
IV = O=c1c2c(ccc3nc(-c4cccnc4)sc32)ncn1C1CC1 [compound 12, FC162]
V = CN1CCN(C(=O)C(C)(C)c2ccc(C(=O)Nc3cn4cc(-c5ccncc5)ccc4n3)cc2)CC1 [compound 10, T3-CLK]
Sort the list above on Ki in ascending fashion. Response field: labels, in requested order.
V, II, I, III, IV

---

# Experimental System: CLK1 (full-length) (Homo sapiens, UniProt P49759)
# Procedure Summary: cell-based
# Design: species or system HEK293T
Measured Parameter: Ki (nM)
# value in nM; strip the unit string

The reported value for CC(=O)c1cccc(-c2cnc3ccc(NCC4CC4)nn23)c1 [compound 1, K00135] in terms of Ki is 229

---

# Experimental System: CLK1 (H148-I484) (Homo sapiens, UniProt P49759, V324A)
# Sequence (P49759 148-484 V324A): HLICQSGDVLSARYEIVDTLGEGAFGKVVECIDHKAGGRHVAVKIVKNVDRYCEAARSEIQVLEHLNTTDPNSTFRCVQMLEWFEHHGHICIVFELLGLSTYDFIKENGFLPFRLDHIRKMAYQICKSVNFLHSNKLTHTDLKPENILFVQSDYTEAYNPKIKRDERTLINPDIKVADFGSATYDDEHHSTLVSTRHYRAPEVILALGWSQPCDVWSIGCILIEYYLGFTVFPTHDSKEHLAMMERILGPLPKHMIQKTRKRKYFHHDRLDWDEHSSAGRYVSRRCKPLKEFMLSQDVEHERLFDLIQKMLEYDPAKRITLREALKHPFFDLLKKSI
# Stated Conditions: binder
Measured Parameter: ΔTm V324A CLK1 (°C)

Sample answers from the record:
In [3]: df
Out[3]:
                                   molecule  test_value
0  Nc1ncnc2c1c(I)cn2C1OC(CO)C(O)C1O (centres unmarked) [compound 18, iodotubercidin]         9.7
1  CC(=O)c1cccc(-c2cnc3ccc(NC(CO)C(C)C)nn23)c1 (centres unmarked) [compound 9]         3.9
2  COC(=N)c1nc2ccc3ncnc(Nc4ccc(OC)cc4F)c3c2s1 [compound 13, ETH1610]         3.8

A = Cn1cc(-c2ccc3occ(-c4cccc(Oc5ccccc5)c4)c3n2)cn1 [compound 14, VN412]
B = CC(=O)c1cccc(-c2cnc3ccc(NCC4CC4)nn23)c1 [compound 1, K00135]
C = O=c1c2c(ccc3nc(-c4cccnc4)sc32)ncn1C1CC1 [compound 12]
D = CN1CCN(C(=O)C(C)(C)c2ccc(C(=O)Nc3cn4cc(-c5ccncc5)ccc4n3)cc2)CC1 [compound 10]
E = CN1CCC2(CC1)NC(=O)c1c(c3ccc(Cl)c(Cl)c3n1C)C2C#N (centres unmarked) [compound 16, KH-CARB10]
Sort ascending by ΔTm V324A CLK1. Response field: labels, in requested order.
E, C, B, A, D
(E: 1.8 °C, C: 3.0 °C, B: 4.9 °C, A: 7.8 °C, D: 13.7 °C)

I = Cn1cc(-c2ccc3occ(-c4cccc(-c5ccncc5)c4)c3n2)cn1 [compound 5, MU1210]
II = Nc1nccc(-c2ccc3noc(-c4ccc(Cl)cc4)c3c2)n1 [compound 4, K00972]
// max by ΔTm V324A CLK1 over [ I , II ] Respond with the label that goes with your answer.
I

---

# Experimental System: CLK1 (H148-I484) (Homo sapiens)
# Stated Conditions: binder
Measured Parameter: ΔTm wild type CLK1 (°C)

Sample answers from the record:
>>> print(df.to_string())
                                   compound              experimental_system  measured_parameter  test_value
0  Cn1c2c(c3ccc(Cl)c(Cl)c31)C(C#N)C1(CCNCC1)NC2=O (racemic)  CLK1 (H148-I484) (Homo sapiens)  ΔTm wild type CLK1         7.4
1    O=C1NCc2ccc3c(-c4cccc(Cl)c4)c[nH]c3c21  CLK1 (H148-I484) (Homo sapiens)  ΔTm wild type CLK1         9.4

a = CN1CCC2(CC1)NC(=O)c1c(c3ccc(Cl)c(Cl)c3n1C)C2C#N (stereo not shown)
b = COC(=N)c1nc2ccc3ncnc(Nc4ccc(OC)cc4F)c3c2s1
Field: lower recorded ΔTm wild type CLK1 (choose a or b ) Respond with the label that goes with your answer.
a

---

# Experimental System: CLK3 (R134-T484) (Homo sapiens)
# Stated Conditions: binder
Measured Parameter: ΔTm wild type CLK3 (°C)

Sample answers from the record:
>>> print(df.to_string())
                                   molecule  measured_parameter  unit_spec  test_value
0  CC(=O)c1cccc(-c2cnc3ccc(NCC4CC4)nn23)c1 [compound 1, K00135]  ΔTm wild type CLK3         °C         1.4
1  O=C1NCc2ccc3c(-c4cccc(Cl)c4)c[nH]c3c21 [compound 11]  ΔTm wild type CLK3         °C         1.7
2  Cn1cc(-c2ccc3occ(-c4cccc(-c5ccncc5)c4)c3n2)cn1 [compound 5, MU1210]  ΔTm wild type CLK3         °C         1.5
3  CN1CCN(C(=O)C(C)(C)c2ccc(C(=O)Nc3cn4cc(-c5ccncc5)ccc4n3)cc2)CC1 [compound 10]  ΔTm wild type CLK3         °C        13.7

A = O=c1c2c(ccc3nc(-c4cccnc4)sc32)ncn1C1CC1 [compound 12]
B = Nc1nccc(-c2ccc3noc(-c4ccc(Cl)cc4)c3c2)n1 [compound 4, K00972]
Field: lower recorded ΔTm wild type CLK3 (choose A or B ) Respond with the label that goes with your answer.
B

1 = COC(=N)c1nc2ccc3ncnc(Nc4ccc(OC)cc4F)c3c2s1 [compound 13, ETH1610]
2 = CN1CCC2(CC1)NC(=O)c1c(c3ccc(Cl)c(Cl)c3n1C)C2C#N (stereo not drawn) [compound 16, KH-CARB10]
3 = CC(=O)c1cccc(-c2cnc3ccc(NC(CO)C(C)C)nn23)c1 (stereo not drawn) [compound 9]
Arrange these molecules by their ΔTm wild type CLK3, starting with the largest number. Response field: labels, in requested order.
1, 3, 2
